molecular target: Delta-type opioid receptor (Mus musculus, UniProt P32300); test: Agonist activity at delta opioid receptor in mouse vas deferens assessed as inhibition of electrically-stimulated muscle contraction
Sequence (P32300 whole entry): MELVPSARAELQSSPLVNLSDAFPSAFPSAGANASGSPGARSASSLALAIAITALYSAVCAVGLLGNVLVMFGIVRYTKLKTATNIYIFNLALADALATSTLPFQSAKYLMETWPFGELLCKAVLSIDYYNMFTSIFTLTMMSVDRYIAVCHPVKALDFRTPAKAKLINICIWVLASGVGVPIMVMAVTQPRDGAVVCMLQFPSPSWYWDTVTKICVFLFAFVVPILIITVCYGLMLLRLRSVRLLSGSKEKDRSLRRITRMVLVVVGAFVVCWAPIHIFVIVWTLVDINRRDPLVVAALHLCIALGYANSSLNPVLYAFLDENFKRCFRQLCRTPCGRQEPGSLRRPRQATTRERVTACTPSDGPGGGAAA
Residues, ends and D or L forms follow the SMILES beside them.
READOUT_NAME: IC50 (µM)
Give the quantity in µM, number only.

Input: I'd like to know its IC50. The compound in question is Cc1cc(O)cc(C)c1C[C@H](N)C(=O)N1CCC[C@H]1C(=O)N[C@@H](Cc1cccc2ccccc12)C(N)=O (HELM PEPTIDE1{[Cc1cc(O)cc(C)c1C[C@H](N)C(=O)[*:2]].P.[O=C([C@H](Cc1cccc2ccccc12)N[*:1])[*:2]].[am]}$$$$V2.0)
Output: 10

Input: May I ask what IC50 has been recorded for Cc1cccc(C)c1C[C@H](NC(=O)[C@@H]1CCCN1C(=O)[C@@H](N)Cc1c(C)cc(O)cc1C)C(N)=O (HELM PEPTIDE1{[Cc1cc(O)cc(C)c1C[C@H](N)C(=O)[*:2]].P.[Cc1cccc(C)c1C[C@H](N[*:1])C(=O)[*:2]].[am]}$$$$V2.0) ?
Output: 0.745

----------
test: Displacement of [3H]DPDPE from delta opioid receptor in guinea pig brain membranes after 1 hr; format: cell membranes, Cavia porcellus, Membrane
READOUT_NAME: Ki (nM)
# value in nM; strip the unit string

Input: What value of measured Ki is listed for CC(C)C[C@@H](NC(=O)[C@H](Cc1ccccc1)NC(=O)CNC(=O)[C@@H](C)NC(=O)[C@@H](N)Cc1ccc(O)cc1)C(=O)O ?
Output: 0.3

----------
biological target: Delta-type opioid receptor (Homo sapiens, UniProt P41143); settings: HEK293, at 100 µM
Sequence (P41143 whole entry, the tested form may be a part): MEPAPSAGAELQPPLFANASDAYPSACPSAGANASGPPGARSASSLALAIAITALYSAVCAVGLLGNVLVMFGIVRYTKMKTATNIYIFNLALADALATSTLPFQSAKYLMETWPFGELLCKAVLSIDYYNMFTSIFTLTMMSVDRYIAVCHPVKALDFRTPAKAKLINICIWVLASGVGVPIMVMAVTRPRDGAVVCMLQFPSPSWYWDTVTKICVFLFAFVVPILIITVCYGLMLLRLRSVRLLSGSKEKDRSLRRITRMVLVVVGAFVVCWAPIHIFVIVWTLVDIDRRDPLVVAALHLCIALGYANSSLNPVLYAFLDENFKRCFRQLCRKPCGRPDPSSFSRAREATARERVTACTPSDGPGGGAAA
Calls of active or inactive are those of the source. The rule behind the calls is not given here. Residues, ends and D or L forms follow the SMILES beside them.
Assign a class; possible classes are active, inactive

A selection of reference data follows.
{"COMPOUND": "Cc1cc(O)cc(C)c1C[C@H](N)C(=O)N1CCC[C@H]1C(=O)N[C@@H](Cc1ccccc1)C(=O)N[C@@H](Cc1ccc2ccccc2c1)C(N)=O (HELM PEPTIDE1{[Cc1cc(O)cc(C)c1C[C@H](N)C(=O)[*:2]].P.F.[O=C([C@H](Cc1ccc2ccccc2c1)N[*:1])[*:2]].[am]}$$$$V2.0)", "GROUP_LABEL": "inactive"}
{"COMPOUND": "Cc1cc(C)c(C[C@H](NC(=O)[C@H](Cc2c(C)cc(C)cc2C)NC(=O)[C@@H]2CCCN2C(=O)[C@@H](N)Cc2c(C)cc(O)cc2C)C(N)=O)c(C)c1", "GROUP_LABEL": "active"}
{"COMPOUND": "Cc1cccc(C)c1C[C@H](NC(=O)[C@H](Cc1ccccc1)NC(=O)[C@@H]1CCCN1C(=O)[C@@H](N)Cc1c(C)cc(O)cc1C)C(N)=O", "GROUP_LABEL": "inactive"}

Kindly review the next compound as well.
Input: Recorded test call requested for Cc1cc(C)c(C[C@H](NC(=O)[C@H](Cc2ccccc2)NC(=O)[C@@H]2CCCN2C(=O)[C@@H](N)Cc2c(C)cc(O)cc2C)C(N)=O)c(C)c1
Output: inactive

----------
biological target: Delta-type opioid receptor (Homo sapiens); assay: Agonist activity at GFP-fused delta opioid receptor (unknown origin) expressed in HEK293 cells assessed as recruitment of beta-arrestin-2 after 10 mins by BRET assay; assay type: functional, cell-based
Residues, ends and D or L forms follow the SMILES beside them.

{"COMPOUND": "Cc1cc(O)cc(C)c1C[C@H](NC(=O)[C@H](Cc1ccccc1)NC(=O)[C@@H]1CCCN1C(=O)[C@@H](N)Cc1c(C)cc(O)cc1C)C(N)=O (HELM PEPTIDE1{[Cc1cc(O)cc(C)c1C[C@H](N)C(=O)[*:2]].P.F.[Cc1cc(O)cc(C)c1C[C@H](N[*:1])C(=O)[*:2]].[am]}$$$$V2.0)", "EC50": "Not Active"}
{"COMPOUND": "Cc1cc(C)c(C[C@H](NC(=O)[C@H](Cc2c(C)cc(C)cc2C)NC(=O)[C@@H]2CCCN2C(=O)[C@@H](N)Cc2c(C)cc(O)cc2C)C(N)=O)c(C)c1", "EC50": "Not Active"}
{"COMPOUND": "Cc1cccc(C)c1C[C@H](NC(=O)[C@@H]1CCCN1C(=O)[C@@H](N)Cc1c(C)cc(O)cc1C)C(N)=O (HELM PEPTIDE1{[Cc1cc(O)cc(C)c1C[C@H](N)C(=O)[*:2]].P.[Cc1cccc(C)c1C[C@H](N[*:1])C(=O)[*:2]].[am]}$$$$V2.0)", "EC50": "Not Active"}

----------
target: Kappa-type opioid receptor (Homo sapiens, UniProt P41145); details: HEK293, at 0.1 to 10 µM
Sequence (P41145 whole entry, the tested form may be a part): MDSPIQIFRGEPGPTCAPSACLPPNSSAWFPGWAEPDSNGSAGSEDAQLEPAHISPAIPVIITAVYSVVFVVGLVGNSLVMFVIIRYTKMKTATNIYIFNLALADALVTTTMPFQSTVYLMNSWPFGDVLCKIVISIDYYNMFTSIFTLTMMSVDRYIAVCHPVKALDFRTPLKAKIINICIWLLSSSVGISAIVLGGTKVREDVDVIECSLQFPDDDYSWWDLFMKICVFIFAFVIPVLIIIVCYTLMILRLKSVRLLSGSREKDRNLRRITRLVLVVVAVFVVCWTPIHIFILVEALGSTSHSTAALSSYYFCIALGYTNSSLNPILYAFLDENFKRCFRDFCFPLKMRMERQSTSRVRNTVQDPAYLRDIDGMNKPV
Calls of active or inactive are those of the source. No cut-off for these calls is given here. Residues, ends and D or L forms follow the SMILES beside them.
Tick one outcome: T for active, F for inactive

{"COMPOUND": "Cc1cc(O)cc(C)c1C[C@H](N)C(=O)N1CCC[C@H]1C(=O)N[C@@H](Cc1ccc2ccccc2c1)C(N)=O (HELM PEPTIDE1{[Cc1cc(O)cc(C)c1C[C@H](N)C(=O)[*:2]].P.[O=C([C@H](Cc1ccc2ccccc2c1)N[*:1])[*:2]].[am]}$$$$V2.0)", "TARGET_OR_SYSTEM": "Kappa-type opioid receptor (Homo sapiens, UniProt P41145)", "GROUP_LABEL": "F"}
{"COMPOUND": "Cc1cc(C)c(C[C@H](NC(=O)[C@H](Cc2ccccc2)NC(=O)[C@@H]2CCCN2C(=O)[C@@H](N)Cc2c(C)cc(O)cc2C)C(N)=O)c(C)c1", "TARGET_OR_SYSTEM": "Kappa-type opioid receptor (Homo sapiens, UniProt P41145)", "GROUP_LABEL": "F"}
{"COMPOUND": "Cc1cc(O)cc(C)c1C[C@H](N)C(=O)N1CCC[C@H]1C(=O)N[C@@H](Cc1c[nH]c2ccccc12)C(N)=O (HELM PEPTIDE1{[Cc1cc(O)cc(C)c1C[C@H](N)C(=O)[*:2]].P.W.[am]}$$$$V2.0)", "TARGET_OR_SYSTEM": "Kappa-type opioid receptor (Homo sapiens, UniProt P41145)", "GROUP_LABEL": "T"}

Input: Short answer needed: outcome of this test for Cc1cc(O)cc(C)c1C[C@H](N)C(=O)N1CCC[C@H]1C(=O)N[C@@H](Cc1ccccc1)C(=O)N[C@@H](Cc1c[nH]c2ccccc12)C(N)=O (HELM PEPTIDE1{[Cc1cc(O)cc(C)c1C[C@H](N)C(=O)[*:2]].P.F.W.[am]}$$$$V2.0) ?
Output: F

----------
target: Kappa-type opioid receptor (Homo sapiens); assay: Agonist activity at GFP-fused kappa opioid receptor (unknown origin) expressed in HEK293 cells assessed as recruitment of beta-arrestin-2 after 10 mins by BRET assay; type: cell-based
Residues, ends and D or L forms follow the SMILES beside them.
READOUT_NAME: EC50

{"COMPOUND": "Cc1cccc(C)c1C[C@H](NC(=O)[C@H](Cc1ccccc1)NC(=O)[C@@H]1CCCN1C(=O)[C@@H](N)Cc1c(C)cc(O)cc1C)C(N)=O", "TARGET_OR_SYSTEM": "Kappa-type opioid receptor (Homo sapiens)", "READOUT_NAME": "EC50", "RECORDED_MEASUREMENT": "Not Active"}
{"COMPOUND": "Cc1cc(C)c(C[C@H](NC(=O)[C@@H]2CCCN2C(=O)[C@@H](N)Cc2c(C)cc(O)cc2C)C(N)=O)c(C)c1", "TARGET_OR_SYSTEM": "Kappa-type opioid receptor (Homo sapiens)", "READOUT_NAME": "EC50", "RECORDED_MEASUREMENT": "Not Active"}
{"COMPOUND": "Cc1cc(O)cc(C)c1C[C@H](N)C(=O)N1CCC[C@H]1C(=O)N[C@@H](Cc1cccc2ccccc12)C(N)=O (HELM PEPTIDE1{[Cc1cc(O)cc(C)c1C[C@H](N)C(=O)[*:2]].P.[O=C([C@H](Cc1cccc2ccccc12)N[*:1])[*:2]].[am]}$$$$V2.0)", "TARGET_OR_SYSTEM": "Kappa-type opioid receptor (Homo sapiens)", "READOUT_NAME": "EC50", "RECORDED_MEASUREMENT": "Not Active"}
{"COMPOUND": "Cc1cc(C)c(C[C@H](NC(=O)[C@H](Cc2ccccc2)NC(=O)[C@@H]2CCCN2C(=O)[C@@H](N)Cc2c(C)cc(O)cc2C)C(N)=O)c(C)c1", "TARGET_OR_SYSTEM": "Kappa-type opioid receptor (Homo sapiens)", "READOUT_NAME": "EC50", "RECORDED_MEASUREMENT": "Not Active"}

----------
pKi, Mu-type opioid receptor (Rattus norvegicus, UniProt P33535): measured values
Residues, ends and D or L forms follow the SMILES beside them.
The value called pKi is obtained by taking minus log10 of the concentration in mol/L.

Below, 2 compounds whose answers are already recorded.
{"COMPOUND": "Cc1cc(O)cc(C)c1C[C@H](NC(=O)[C@H](Cc1ccccc1)NC(=O)[C@@H]1CCCN1C(=O)[C@@H](N)Cc1c(C)cc(O)cc1C)C(N)=O (HELM PEPTIDE1{[Cc1cc(O)cc(C)c1C[C@H](N)C(=O)[*:2]].P.F.[Cc1cc(O)cc(C)c1C[C@H](N[*:1])C(=O)[*:2]].[am]}$$$$V2.0)", "pKi": 9.55}
{"COMPOUND": "Cc1cc(O)cc(C)c1C[C@H](N)C(=O)N1CCC[C@H]1C(=O)N[C@@H](Cc1ccccc1)C(=O)N[C@@H](Cc1cccc2ccccc12)C(N)=O (HELM PEPTIDE1{[Cc1cc(O)cc(C)c1C[C@H](N)C(=O)[*:2]].P.F.[O=C([C@H](Cc1cccc2ccccc12)N[*:1])[*:2]].[am]}$$$$V2.0)", "pKi": 9.55}

Continue with the compound presented below.
Input: Please provide the recorded pKi for Cc1cc(O)cc(C)c1C[C@H](N)C(=O)N1CCC[C@H]1C(=O)N[C@@H](Cc1c[nH]c2ccccc12)C(N)=O (HELM PEPTIDE1{[Cc1cc(O)cc(C)c1C[C@H](N)C(=O)[*:2]].P.W.[am]}$$$$V2.0) , tested on Mu-type opioid receptor (Rattus norvegicus, UniProt P33535).
Sequence (P33535 whole entry): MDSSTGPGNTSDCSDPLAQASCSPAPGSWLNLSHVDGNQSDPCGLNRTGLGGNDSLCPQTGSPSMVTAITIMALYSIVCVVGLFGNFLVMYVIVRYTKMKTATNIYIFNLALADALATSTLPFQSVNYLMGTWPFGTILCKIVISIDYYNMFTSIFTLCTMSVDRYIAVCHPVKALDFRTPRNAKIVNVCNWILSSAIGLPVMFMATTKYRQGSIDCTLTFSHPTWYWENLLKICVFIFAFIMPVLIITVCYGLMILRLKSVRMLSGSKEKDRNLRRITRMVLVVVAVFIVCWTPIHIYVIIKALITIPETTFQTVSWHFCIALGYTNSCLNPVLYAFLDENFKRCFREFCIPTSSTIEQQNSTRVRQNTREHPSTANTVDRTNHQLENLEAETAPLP
Output: 9.68
